molecular target: Recombinant human DDR1 (aa440-876 containing a GST tag) (Homo sapiens (Human)); experiment: LanthaScreen Eu Kinase Binding Assay DDR1; conditions: Kinase Tracer 178 5 nM, at least two independent replicates
OUTCOME MEASURE: DDR1 pIC50

Consider the following illustrative entries.
Ask: What value of DDR1 pIC50 has been recorded for this entry: Cn1ncc2c(-c3ccc(-n4c(=O)n(CC(=O)N5CCC[C@H](C(F)(F)F)C5)c5ccccc54)cc3)cncc21
Reply: A (pIC50>8)

Ask: What value of DDR1 pIC50 has been recorded for this entry: COc1cccc2c1n(-c1ccc(-c3cncc4c3cnn4C)cc1C)c(=O)n2CC(=O)NCC(F)(F)F
Reply: D (pIC50≤6)

Ask: What value of DDR1 pIC50 has been recorded for this entry: Cc1cccc2c1n(-c1ccc(-c3cncc4c3cnn4C)cc1)c(=O)n2CC(=O)N1CCC[C@H]1C(F)(F)F
Reply: A (pIC50>8)

Ask: What value of DDR1 pIC50 has been recorded for this entry: CC(CC(F)(F)F)NC(=O)Cn1c(=O)n(-c2ccc(-c3cncc4c3cnn4C)cc2)c2ccccc21 (centres unmarked)
Reply: A (pIC50>8)

Ask: What value of DDR1 pIC50 has been recorded for this entry: Cc1cc(-c2cncc3c2cnn3C)ccc1-n1c(=O)n(CC(=O)NCC(F)(F)F)c2cccc(Cl)c21
Reply: A (pIC50>8)

Ask: What value of DDR1 pIC50 has been recorded for this entry: Cn1ncc2c(-c3ccc(-n4c(=O)n(CC(=O)N5CCC[C@H]5C(F)(F)F)c5ccccc54)cc3)cncc21
Reply: A (pIC50>8)

Ask: What value of DDR1 pIC50 has been recorded for this entry: Cc1cccc2c1n(-c1ncc(-c3cncc4[nH]ncc34)cn1)c(=O)n2CC(=O)N[C@@H](C)C(F)(F)F
Reply: A (pIC50>8)

Ask: What value of DDR1 pIC50 has been recorded for this entry: Cn1ncc2c(-c3ccc(-n4c(=O)n(CC(=O)N5CCCC[C@H]5C(F)(F)F)c5ccccc54)cc3)cncc21
Reply: A (pIC50>8)

Respectfully, I request DDR1 pIC50 for each entry included below.
1. COc1cccc2c1n(-c1ccc(-c3cncc4c3cnn4C)cc1)c(=O)n2CC(=O)N[C@@H](C)C(F)(F)F
2. Cc1cccc2c1n(-c1ccc(-c3cncc4[nH]ncc34)cn1)c(=O)n2CC(=O)NCC(F)(F)F
3. Cc1cccc2c1n(-c1ccc(-c3cncc4c3cnn4C)cc1)c(=O)n2CC(=O)N1CCOC(C(F)(F)F)C1 (centres unmarked)
4. Cc1cccc2c1n(-c1ccc(-c3cncc4c3cnn4C)nc1)c(=O)n2CC(=O)N1CCOC[C@H]1C(F)(F)F

Reply:
D (pIC50≤6)
A (pIC50>8)
A (pIC50>8)
A (pIC50>8)

====

target: Recombinant human DDR1 (aa440-876 containing a GST tag) (Homo sapiens (Human), UniProt Q08345); assay: LanthaScreen Eu Kinase Binding Assay DDR1; details: Kinase Tracer 178 5 nM, at least two independent replicates
Sequence (Q08345 other isoform, or with tags, fused parts or gaps): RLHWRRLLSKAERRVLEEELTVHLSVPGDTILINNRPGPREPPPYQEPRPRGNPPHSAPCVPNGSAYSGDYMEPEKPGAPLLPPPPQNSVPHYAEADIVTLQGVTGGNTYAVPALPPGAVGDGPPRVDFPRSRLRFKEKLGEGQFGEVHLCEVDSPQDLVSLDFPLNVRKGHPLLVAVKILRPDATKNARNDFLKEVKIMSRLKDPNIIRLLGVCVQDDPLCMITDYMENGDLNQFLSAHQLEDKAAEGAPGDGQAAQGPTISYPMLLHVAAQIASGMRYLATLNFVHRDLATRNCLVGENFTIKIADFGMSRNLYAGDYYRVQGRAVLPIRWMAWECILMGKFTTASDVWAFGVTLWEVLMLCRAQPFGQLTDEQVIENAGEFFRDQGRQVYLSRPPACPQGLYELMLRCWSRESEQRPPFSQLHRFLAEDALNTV
OUTCOME MEASURE: DDR1 pIC50

Ask: What value of DDR1 pIC50 has been recorded for this entry: Cc1cccc2c1n(-c1ccc(-c3cncc4c3cnn4C)nc1)c(=O)n2CC(=O)N1CCC[C@H]1C(F)(F)F [Example 56]
Reply: A (pIC50>8)

Ask: What value of DDR1 pIC50 has been recorded for this entry: Cc1cccc2c1n(-c1ccc(-c3cncc4[nH]ncc34)cn1)c(=O)n2CC(=O)N1CCO[C@@H](C(F)(F)F)C1 [Example 71]
Reply: A (pIC50>8)

Ask: What value of DDR1 pIC50 has been recorded for this entry: Cc1nc(-c2cncc3[nH]ncc23)ccc1-n1c(=O)n(CC(=O)NCC(F)(F)F)c2cccc(C)c21 [Example 94]
Reply: A (pIC50>8)

====

target: Recombinant human DDR2 (aa427-855 containing a GST tag) (Homo sapiens (Human), UniProt Q16832); assay: LanthaScreen Eu Kinase Binding Assay DDR2; details: Kinase Tracer 178 10 nM, at least two independent replicates
Sequence (Q16832 427-855): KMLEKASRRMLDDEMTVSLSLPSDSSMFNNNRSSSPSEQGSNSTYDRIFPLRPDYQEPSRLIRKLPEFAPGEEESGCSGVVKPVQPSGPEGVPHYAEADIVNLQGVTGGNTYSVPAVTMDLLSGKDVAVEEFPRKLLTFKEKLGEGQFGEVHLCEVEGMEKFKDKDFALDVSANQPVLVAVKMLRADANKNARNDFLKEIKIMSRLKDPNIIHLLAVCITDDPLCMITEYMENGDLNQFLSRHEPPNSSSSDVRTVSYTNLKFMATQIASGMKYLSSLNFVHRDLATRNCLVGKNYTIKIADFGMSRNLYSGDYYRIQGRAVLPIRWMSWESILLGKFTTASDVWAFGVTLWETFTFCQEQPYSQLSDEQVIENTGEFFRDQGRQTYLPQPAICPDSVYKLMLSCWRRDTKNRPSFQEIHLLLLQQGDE
OUTCOME MEASURE: DDR2 pIC50

Ask: What value of DDR2 pIC50 has been recorded for this entry: Cn1ncc2c(-c3ccc(-n4c(=O)n(CC(=O)N5CCO[C@@H](C(F)(F)F)C5)c5ccccc54)cc3)cncc21
Reply: D (pIC50≤6)

Ask: What value of DDR2 pIC50 has been recorded for this entry: Cc1cc(-c2cncc3c2cnn3C)ncc1-n1c(=O)n(CC(=O)N[C@H](C)C(F)(F)F)c2cccc(C)c21
Reply: D (pIC50≤6)

Ask: What value of DDR2 pIC50 has been recorded for this entry: Cc1cccc2c1n(-c1cnc(-c3cncc4c3cnn4C)cn1)c(=O)n2CC(=O)N[C@H](C)C(F)(F)F
Reply: D (pIC50≤6)

Ask: What value of DDR2 pIC50 has been recorded for this entry: Cn1ncc2c(-c3ccc(-n4c(=O)n(CC(=O)N5CC(F)(F)C5)c5ccccc54)cc3)cncc21
Reply: D (pIC50≤6)

Ask: What value of DDR2 pIC50 has been recorded for this entry: CC(CC(F)(F)F)NC(=O)Cn1c(=O)n(-c2ccc(-c3cncc4c3cnn4C)cc2)c2ccccc21 (stereo not drawn)
Reply: D (pIC50≤6)

Respectfully, I request DDR2 pIC50 for each entry included below.
1. COc1cc(-c2cncc3c2cnn3C)ccc1-n1c(=O)n(CC(=O)NCC(F)(F)F)c2ccccc21
2. COc1cccc2c1n(-c1ccc(-c3cncc4c3cnn4C)cc1C)c(=O)n2CC(=O)NCC(F)(F)F
3. Cn1ncc2c(-c3ccc(-n4c(=O)n(CC(=O)N5CCOC(C(F)(F)F)C5)c5ccccc54)cc3)cncc21 (stereo not drawn)
4. Cc1cc(-n2c(=O)n(CC(=O)NCC(F)(F)F)c3cccc(C)c32)cnc1-c1cncc2[nH]ncc12
5. CC(NC(=O)Cn1c(=O)n(-c2ccc(-c3cncc4c3cnn4C)cc2)c2ccccc21)C1CC1 (stereo not drawn)
6. Cn1ncc2c(-c3ccc(-n4c(=O)n(CC(=O)NCC(F)(F)F)c5ccccc54)c(Cl)c3)cncc21
7. Cc1cccc2c1n(-c1ncc(-c3cncc4c3cnn4C)cn1)c(=O)n2CC(=O)NCC(F)(F)F
8. Cc1nc(-n2c(=O)n(CC(=O)N[C@@H](C)C(F)(F)F)c3cccc(C)c32)cnc1-c1cncc2c1cnn2C

Reply:
D (pIC50≤6)
D (pIC50≤6)
D (pIC50≤6)
D (pIC50≤6)
D (pIC50≤6)
D (pIC50≤6)
D (pIC50≤6)
D (pIC50≤6)

Ask: What value of DDR2 pIC50 has been recorded for this entry: Cn1ncc2c(-c3ccc(-n4c(=O)n(CC(=O)N5CCC[C@H]5C(F)(F)F)c5cccnc54)cc3)cncc21
Reply: D (pIC50≤6)

====

biological target: Recombinant human DDR2 (aa427-855 containing a GST tag) (Homo sapiens (Human)); test: LanthaScreen Eu Kinase Binding Assay DDR2; settings: Kinase Tracer 178 10 nM, at least two independent replicates
OUTCOME MEASURE: DDR2 pIC50

Ask: What value of DDR2 pIC50 has been recorded for this entry: Cn1ncc2c(-c3ccc(-n4c(=O)n(CC(=O)N5CC(C(F)(F)F)C5)c5ccccc54)cc3)cncc21 [Example 34]
Reply: D (pIC50≤6)

Ask: What value of DDR2 pIC50 has been recorded for this entry: CN1CCN(C(=O)Cn2c(=O)n(-c3ccc(-c4cncc5c4cnn5C)cc3)c3ccccc32)CC1 [Example 21]
Reply: D (pIC50≤6)

Ask: What value of DDR2 pIC50 has been recorded for this entry: CC(CNC(=O)Cn1c(=O)n(-c2ccc(-c3cncc4c3cnn4C)cc2)c2ccccc21)C(F)(F)F (stereo not drawn) [Example 33]
Reply: D (pIC50≤6)

Ask: What value of DDR2 pIC50 has been recorded for this entry: Cn1ncc2c(-c3ccc(-n4c(=O)n(CC(=O)N5CCO[C@H](C(F)(F)F)C5)c5ccccc54)cc3)cncc21 [Example 38]
Reply: D (pIC50≤6)

Ask: What value of DDR2 pIC50 has been recorded for this entry: Cc1cc(-c2cncc3c2cnn3C)cc(C)c1-n1c(=O)n(CC(=O)NCC(F)(F)F)c2ccccc21 [Example 90]
Reply: D (pIC50≤6)

Ask: What value of DDR2 pIC50 has been recorded for this entry: Cc1cc(-n2c(=O)n(CC(=O)NCC(F)(F)F)c3cccc(C)c32)cnc1-c1cncc2c1cnn2C [Example 97]
Reply: D (pIC50≤6)

Ask: What value of DDR2 pIC50 has been recorded for this entry: Cn1ncc2c(-c3ccc(-n4c(=O)n(CC(=O)NC5CC5(F)F)c5ccccc54)cc3)cncc21 (stereo not drawn) [Example 36]
Reply: D (pIC50≤6)

Ask: What value of DDR2 pIC50 has been recorded for this entry: Cn1ncc2c(-c3ccc(-n4c(=O)n(CC(=O)NCC(F)(F)F)c5cccc(F)c54)cc3)cncc21 [Example 86]
Reply: D (pIC50≤6)

Ask: What value of DDR2 pIC50 has been recorded for this entry: Cc1cc(-c2cncc3c2cnn3C)ccc1-n1c(=O)n(CC(=O)N2CCOC(C(F)(F)F)C2)c2ccccc21 (stereo not drawn) [Example 40]
Reply: D (pIC50≤6)

Ask: What value of DDR2 pIC50 has been recorded for this entry: Cn1ncc2c(-c3ccc(-n4c(=O)n(CC(=O)NCC(F)(F)F)c5ccccc54)nc3)cncc21 [Example 63]
Reply: D (pIC50≤6)

Respectfully, I request DDR2 pIC50 for each entry included below.
1. Cc1cc(-c2cncc3c2c(C)nn3C)ncc1-n1c(=O)n(CC(=O)NCC(F)(F)F)c2cccc(C)c21 [Example 108]
2. Cc1cccc2c1n(-c1ncc(-c3cncc4[nH]ncc34)cn1)c(=O)n2CC(=O)N[C@H](C)C(F)(F)F [Example 98]

Reply:
1: D (pIC50≤6); 2: D (pIC50≤6)

Respectfully, I request DDR2 pIC50 for each entry included below.
1. Cc1ncc2c(cnn2C)c1-c1ccc(-n2c(=O)n(CC(=O)NCC(F)(F)F)c3cccc(C)c32)cn1 [Example 109]
2. Cn1ncc2c(-c3ccc(-n4c(=O)n(CC(=O)NCC(F)(F)F)c5ccccc54)cc3)cncc21 [Example 1]

Reply:
1. D (pIC50≤6)
2. D (pIC50≤6)
